Where do these numbers come from? They come from ChEMBL document CHEMBL1145498.

- tested.on: Calcium/calmodulin-dependent protein kinase type II subunit gamma (Homo sapiens) (UniProt Q13555)
- Sequence (Q13555 whole entry): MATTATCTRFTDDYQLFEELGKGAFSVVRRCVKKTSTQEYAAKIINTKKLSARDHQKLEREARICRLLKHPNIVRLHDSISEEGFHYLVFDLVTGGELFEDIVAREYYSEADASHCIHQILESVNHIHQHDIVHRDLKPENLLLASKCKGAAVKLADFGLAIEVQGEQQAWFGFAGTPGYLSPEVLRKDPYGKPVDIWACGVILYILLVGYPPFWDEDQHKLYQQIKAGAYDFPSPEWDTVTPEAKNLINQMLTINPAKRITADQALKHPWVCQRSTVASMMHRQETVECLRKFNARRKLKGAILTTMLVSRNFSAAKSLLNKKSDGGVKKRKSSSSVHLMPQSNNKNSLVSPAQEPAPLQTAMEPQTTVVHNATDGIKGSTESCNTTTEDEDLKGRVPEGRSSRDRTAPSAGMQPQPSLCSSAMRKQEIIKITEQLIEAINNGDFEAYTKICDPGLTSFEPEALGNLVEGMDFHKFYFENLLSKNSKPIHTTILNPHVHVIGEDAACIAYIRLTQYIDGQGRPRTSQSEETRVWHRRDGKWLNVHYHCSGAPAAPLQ
reported.property: ΔTm (°C)
State the answer as a number, implicitly in °C.

query: What value of ΔTm has been reported for the following compound? COc1nccc(-c2c(-c3ccc(F)cc3)ncn2[C@H]2CC[C@H](O)CC2)n1
result: 0.1

query: // lookup ΔTm for O=C1c2ccccc2-c2n[nH]c3cccc1c23
result: 0.8

query: Consider the compound shown here: Cc1[nH]c(/C=C2\C(=O)Nc3ccc(S(=O)(=O)N(C)c4cccc(Cl)c4)cc32)c(C)c1C(=O)N1CCN(C)CC1 What is its recorded ΔTm?
result: 0.6

query: Look up ΔTm for this compound: O=C(O)c1cc(NCc2cc(O)ccc2O)ccc1O
result: 0

query: Item CCN1/C(=C/C(C)=O)Sc2ccc(OC)cc21 has what recorded ΔTm?
result: 0.1

query: Query (compound): Nc1cccc(-c2cc3c(Oc4cccc(O)c4)ncnc3[nH]2)c1 ; field requested: ΔTm
result: 0.1

query: // ΔTm lookup, key: O=C1Nc2cc(Br)ccc2/C1=C1/Nc2ccccc2/C1=N\O
result: 4

query: May I ask what ΔTm has been recorded for COC1=C2C[C@@H](C)C[C@H](OC)[C@H](O)[C@@H](C)/C=C(\C)[C@H](OC(N)=O)[C@@H](OC)/C=C\C=C(/C)C(=O)NC(=CC1=O)C2=O ?
result: 0.1

query: I would be grateful if you could share the reported ΔTm for COc1cc2ncnc(Nc3cccc(Br)c3)c2cc1OC .
result: 0.1

query: Entry CC(C)(C)c1cc(C=C2C(=O)C=CC2=O)cc(C(C)(C)C)c1O has what ΔTm?
result: 0.3

query: Query (compound): NCCNS(=O)(=O)c1cccc2c(Cl)cccc12 ; field requested: ΔTm
result: 0.4

query: Which ΔTm value belongs to O=C1C=C2C(=Nc3c2c2c(c4c3=NC3=C4CCC=C3)C=NC=2)CC1 ?
result: 2.4

query: What measured ΔTm goes with CC(C)(C)n1nc(-c2ccc(Cl)cc2)c2c(N)ncnc21 ?
result: 0.4

query: Dear colleague, I am looking for the recorded ΔTm of the following compound: O=C1NC(=O)C(c2c[nH]c3ccccc23)=C1c1c[nH]c2ccccc12
result: 2.2

query: Which measured ΔTm value corresponds to CC(C)(C)n1nc(-c2cccc3ccccc23)c2c(N)ncnc21 ?
result: 0.2

query: For the compound N#C/C(=C1/Nc2ccccc2S1)c1ccnc(NCCc2cccnc2)n1 , what ΔTm is on record?
result: 1

query: What value of ΔTm has been reported for the following compound? O=c1ccc2ccc(O)c(O)c2o1
result: 0

query: So what does the record say about ΔTm for COc1cc(C[C@H]2C(=O)OC[C@@H]2Cc2ccc(OC)c(OC)c2)ccc1O ?
result: 0.3

query: Tell me the measured ΔTm of CN(C)S(=O)(=O)c1ccc2c(c1)/C(=C/c1cc3c([nH]1)CCCC3)C(=O)N2 , please.
result: 1.2

query: Field request: ΔTm | item: COc1cc(/C=C/C(=O)CC(=O)/C=C/c2ccc(O)c(OC)c2)ccc1O
result: -0.2

query: Give the measured ΔTm of N#C/C(=C(/N)Sc1ccc(N)cc1)c1ccccc1C(F)(F)F .
result: 0.1

query: Record request: ΔTm value, item NC(=O)c1ccc(-c2nc(-c3ccc4c(c3)OCCO4)c(-c3ccccn3)[nH]2)cc1
result: 0.3

query: Given the compound COc1cc2ncnc(Nc3ccc(F)c(Cl)c3)c2cc1OCCCN1CCOCC1 , what is its reported ΔTm?
result: 0.4

query: What ΔTm value was documented for this compound, CCOc1ccc(/C=C2/SC(=O)N(CCN)C2=O)cc1 ?
result: 0

query: ΔTm lookup needed for CCN(CC)CCNC(=O)c1c(C)[nH]c(/C=C2\C(=O)Nc3ccc(F)cc32)c1C , thanks.
result: 5.2

query: Need ΔTm, item CCOc1cc(/C=C(\C#N)C(N)=O)cc(CSc2ccccc2)c1O
result: -0.1

query: ΔTm for Cc1ccc(NC2=CC(=O)c3sc(C)nc3C2=O)cc1 ?
result: -2

query: Requested field: ΔTm. Item: CN(C)CCCn1cc(C2=C(c3c[nH]c4ccccc34)C(=O)NC2=O)c2ccccc21
result: 2.9

query: Quick one: ΔTm for Cc1cc(C=C2C(=O)C=CC2=O)cc(C)c1O ?
result: 0.3

query: # query: ΔTm of entry CN(C)C[C@@H]1CCn2cc(c3ccccc32)C2=C(C(=O)NC2=O)c2cn(c3ccccc23)CCO1
result: 1.6

query: Look up ΔTm: Oc1ccc(-c2nc(-c3ccc(F)cc3)c(-c3ccncc3)[nH]2)cc1
result: 0.6
